Data origin: patent US20140165223A1

experimental.protocol: MTT survival assay in osteoclast precursors
Type: cell-based
experimental.context: M-CSF, 1-20 μM, 2 days, read-out: IC50 in MTT survival assay (cell toxicity)
Excerpt: However, SPD304 contains a potentially toxic 3-substituted indole moiety that produces reactive intermediates that possibly cause toxicities by covalently binding to nucleophilic residues of protein and/or DNA. […] Therefore, we investigated the potential of testing SPD304 derivatives designed to be less toxic with higher specificity for human RANKL. […] These small molecules have been also tested as regards their effect on cell toxicity (FIG. 14C). […]
readout.label: IC50 at 2 days

[ask] For the compound Cc1cc2occ(CN(C)CCN(C)Cc3cn(-c4cccc(C(F)(F)F)c4)c4ccccc34)c(=O)c2cc1C , give its reported IC50 at 2 days.
[reply] 3.4 µM
